Origin of values: the supplement of paper PMC8728848

- Measurement target: Fuc(a1-2)Gal(b1-3)[Fuc(a1-4)]GlcNAc
- Protocol text: glycan array binding signal (z-score within array); higher = stronger binding
- Particulars: glycan notation: IUPAC condensed, linker removed
Only a selection was taken, and the strongest signals are over-represented in it overall.
Property measured: glycan array binding signal (z-score)
Please give the numeric answer without any surrounding text.

Worked set:
Binder	glycan array binding signal (z-score)
BTL (Bryothamnion triquetrum) (protein) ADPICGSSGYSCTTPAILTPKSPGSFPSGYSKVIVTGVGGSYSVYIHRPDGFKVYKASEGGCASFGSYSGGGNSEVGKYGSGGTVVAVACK	-0.245
RNase 1 (Homo sapiens) (protein) KESRAKKFQRQHMDSDSSPSSSSTYCNQMMRRRNMTQGRCKPVNTFVHEPLVDVQNVCFQEKVTCKNGQGNCYKSNSSMHITDCRLTNGSRYPNCAYRTSPKERHIIVACEGSPYVPVHFDASVEDST	-0.174

Input line: Data request, read-out glycan array binding signal (z-score), for L-Selectin (Homo sapiens), P14151 (protein) MIFPWKCQSTQRDLWNIFKLWGWTMLCCDFLAHHGTDCWTYHYSEKPMNWQRARRFCRDNYTDLVAIQNKAEIEYLEKTLPFSRSYYWIGIRKIGGIWTWVGTNKSLTEEAENWGDGEPNNKKNKEDCVEIYIKRNKDAGKWNDDACHKLKAALCYTASCQPWSCSGHGECVEIINNYTCNCDVGYYGPQCQFVIQCEPLEAPELGTMDCTHPLGNFSFSSQCAFSCSEGTNLTGIEETTCGPFGNWSSPEPTCQVIQCEPLSAPDLGIMNCSHPLASFSFTSACTFICSEGTELIGKKKTICESSGIWSNPSPICQKLDKSFSMIKEGDYNPLFIPVAVMVTAFSGLAFIIWLARRLKKGKKSKRSMNDPY
Output line: -0.36
